# MEASUREMENT NOTES: in vivo
# CONDITIONS USED: male, SD, rat, 5 mg/kg
QUANTITY NAME: AUC

# GIVEN SMILES, OBS VALUE
rows = [
    ("CC1=C(/C=C/C(C)=C/C=C/C(C)=C/C=C/C=C(C)/C=C/C=C(C)/C=C/C2=C(C)CCCC2(C)C)C(C)(C)CCC1", "110 ng·h/mL"),
]

----------
# MEASUREMENT NOTES: Evaluation for dissolvability of phytochemical (dissolution rate in water)
# CONDITIONS USED: ultrapure water, shaken for 3 hours, centrifuged supernatant, 21±2° C.
Overview of reported Dissolution rate across a group of molecules:
QUANTITY NAME: Dissolution rate

# MOLECULE, OBS VALUE
measured = [
    ("CC1=C(/C=C/C(C)=C/C=C/C(C)=C/C=C/C=C(C)/C=C/C=C(C)/C=C/C2=C(C)CCCC2(C)C)C(C)(C)CCC1 [β-Carotene]", "0.1% or less"),
    ("O=c1c(-c2ccc(O)cc2)coc2cc(O)cc(O)c12 [Genistein]", "0.2%"),
    ("CC(C)=CCC/C(C)=C/C=C/C(C)=C/C=C/C(C)=C/C=C/C=C(C)/C=C/C=C(C)/C=C/C=C(\\C)CCC=C(C)C [Lycopene]", "0.1% or less"),
    ("C[C@@H]1O[C@@H](O[C@H]2[C@H](Oc3cc(O)c4c(c3)O[C@H](c3ccc(O)cc3)CC4=O)O[C@H](CO)[C@@H](O)[C@@H]2O)[C@H](O)[C@H](O)[C@H]1O [Naringin]", "17%"),
    ("O=c1c(O)c(-c2ccc(O)cc2)oc2cc(O)cc(O)c12 [Kaempferol]", "0.1% or less"),
    ("COc1ccc([C@@H]2CC(=O)c3c(O)cc(O[C@@H]4O[C@H](CO[C@@H]5O[C@@H](C)[C@H](O)[C@@H](O)[C@H]5O)[C@@H](O)[C@H](O)[C@H]4O)cc3O2)cc1O [Hesperidin]", "0.2%"),
]
